The measured values listed here are drawn from patent US11319296B2.

Assay: Measurement of concentration of compound in cerebrospinal fluid (CSF) after oral administration
Assay type: in vivo
Conditions: rat, 3 mg/kg, male Wistar rats, oral 3 mg/5 mL/kg, five test substances mixed, CSF collected 3 hours after administration
Experimental: Pharmacokinetic Test 1: Measurement of Concentration of Compound of Present Invention in Cerebrospinal Fluid (Hereinbelow, CSF) […] Candesartan (TRC) was used as an internal standard substance, 40 μL of acetonitrile and 160 μL of Candesartan-containing acetonitrile/ethanol (7:3) were added to 10 μL of the obtained CSF sample, and the mixture was stirred. […] In the measurement, standard samples for calibration curve were prepared in the same matrix and analyzed in the same manner. […]
value-type: concentration at 3 h (ng/mL)
Give the quantity in ng/mL, number only.

Guide cases for concentration at 3 h, answers given:
>>> print(df.to_string())
                                   molecule            value_type  value_units  test_value
0  Cc1cc(OCCC2CCCCC2)cc(C)c1C(=O)Nc1cc(CC(=O)O)ccc1Cl  concentration at 3 h        ng/mL          29
1  Cc1cc(OCCC2CCCCO2)cc(C)c1C(=S)Nc1cc(C(C)C(=O)O)ccc1Cl (stereo in doubt)  concentration at 3 h        ng/mL          66
2  O=C(O)Cc1ccc(Cl)c(NC(=S)c2ccc(OCCC3CCCCO3)cc2C(F)(F)F)c1 (stereo not shown)  concentration at 3 h        ng/mL          55
3  O=C(O)Cc1ccc(Cl)c(NC(=S)c2ccc(OCCc3ccccc3)cc2C(F)(F)F)c1  concentration at 3 h        ng/mL          34
4  Cc1cc(OCC[C@H]2CCCCO2)cc(C)c1C(=S)Nc1cc(CC(=O)O)ccc1Cl  concentration at 3 h        ng/mL          48

For record Cc1cc(OCCC2CCCCO2)cc(C)c1C(=S)Nc1cc(CC(=O)O)ccc1Cl (stereo not shown) the listed concentration at 3 h is 43

// Cc1cc(OCCC2CCCCO2)cc(C)c1C(=S)Nc1cc(C(C)(C)C(=O)O)ccc1F (stereo not shown) : concentration at 3 h value = 52

Summary for this molecule, "Cc1cc(/C=C/CC2CCCCC2)cc(C)c1C(=O)Nc1cc(CC(=O)O)ccc1Cl" : concentration at 3 h is 28

Short answer for "Cc1cc(OCCC2CCCCC2)cc(C)c1C(=S)Nc1cc(CC(=O)O)ccc1Cl" : concentration at 3 h was 36

"Cc1cc(C#CCC2CCCCC2)cc(C)c1C(=O)Nc1cc(CC(=O)O)ccc1Cl" yielded concentration at 3 h of 45

###

Examples of compounds with documented IC50 follow.
Target: Human DP receptor (Homo sapiens, UniProt Q13258)
Sequence (Q13258 whole entry): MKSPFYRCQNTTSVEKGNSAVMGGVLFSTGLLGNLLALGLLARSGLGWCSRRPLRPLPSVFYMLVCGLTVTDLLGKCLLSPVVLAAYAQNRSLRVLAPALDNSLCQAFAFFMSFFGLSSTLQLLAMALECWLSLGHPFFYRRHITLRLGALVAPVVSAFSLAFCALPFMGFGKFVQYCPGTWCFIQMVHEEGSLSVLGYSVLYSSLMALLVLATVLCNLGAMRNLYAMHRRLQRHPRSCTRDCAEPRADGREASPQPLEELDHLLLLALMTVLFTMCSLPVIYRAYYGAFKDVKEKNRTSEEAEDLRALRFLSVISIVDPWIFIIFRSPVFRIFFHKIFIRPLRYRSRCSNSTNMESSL
Experiment: Measurement of DP receptor antagonistic activity using human DP receptor expressing cells (cAMP-HTRF)
Conditions: inhibition of cAMP production increased by 10 nmol/L prostaglandin D2
Report as a plain number; the unit nM is understood.

Solved cases below.
In [3]: df
Out[3]:
                                   compound  value_type  test_value
0  Cc1cc(OCCC2CCCCC2)cc(C)c1C(=S)Nc1cc(CC(=O)O)ccc1Cl        IC50         1.7
1  Cc1cc(OC2Cc3ccccc3C2)cc(C)c1C(=O)Nc1cc(CC(=O)O)ccc1F        IC50          10
2  Cc1cc(OCCC2CCCCO2)cc(C)c1C(=S)Nc1cc(C(C)(C)C(=O)O)ccc1F (stereo not drawn)        IC50          35

Sure, the documented IC50 for "Cc1cc(C#CCC2CCCCC2)cc(C)c1C(=O)Nc1cc(CC(=O)O)ccc1Cl" is 16

The reported value for "Cc1cc(OCC[C@H]2CCCCO2)cc(C)c1C(=S)Nc1cc(CC(=O)O)ccc1Cl" in terms of IC50 is 4.8

Lab book: IC50 of Cc1cc(OCCC2CCCCO2)cc(C)c1C(=S)Nc1cc(C(C)C(=O)O)ccc1Cl (stereo in doubt) noted as 7.8

Just so you know, measured IC50 for Cc1cc(OCCC2CCCCO2)cc(C)c1C(=O)Nc1cc(CC(=O)O)ccc1Cl (stereo not drawn) came out at 58

So for "Cc1cc(/C=C/CC2CCCCC2)cc(C)c1C(=O)Nc1cc(CC(=O)O)ccc1Cl" , the logged IC50 turned out to be 3.7

Briefly, IC50 measured for "O=C(O)Cc1ccc(Cl)c(NC(=O)c2ccc(OCCC3CCCCC3)cc2C(F)(F)F)c1" : 34

Briefly, IC50 measured for Cc1cc(OCCC2CCCCO2)cc(C)c1C(=S)Nc1cc(CC(=O)O)ccc1Cl (stereo not drawn) : 9.6

The compound listed as "O=C(O)Cc1ccc(Cl)c(NC(=S)c2ccc(OCCc3ccccc3)cc2C(F)(F)F)c1" shows IC50 equal to 5.1

Input "Cc1cc(OCCC2CCCCC2)cc(C)c1C(=O)Nc1cc(CC(=O)O)ccc1Cl" . Output IC50: 11
